meta.source: ChEMBL document CHEMBL4483862

- System: Plasmodium berghei
- Experimental Protocol: Luciferase/luciferin-expressing antifolate-resistant parasites were used to infect a culture of HepG2 cells that were pre-incubated with compounds. Infected hepatocytes emit light due to the luciferase reaction. Assay results are presented as the percent inhibition of light emission compared to control. […]
- Type: functional
- Settings: sporozoite, PBLUC_HILL_SLOPE 8.32, PBLUC_R_SQUARED 0.0862, read-out: LUCIFERASE INFECTION ASSAY - IC50
pIC50: −log10 of the molar value.
Value Kind: pIC50

What the record says about COC(=O)c1cc(CSc2nc3ccccc3c(=O)n2-c2ccc(OC)cc2)oc1C : pIC50 is < 5.00
